test: Example 2 urinary pharmacokinetics, normal renal function vs severe renal impairment; conditions: both, human, urine, other: intranasal (drug-soaked pledgets in the nasal cavity), 160 mg, renal clearance, range observed, renally impaired patients; 32 hours from administration
Reported Property: CL renal

INSERT INTO measurements (compound, reported_property, observed_measurement) VALUES
  ('COC(=O)[C@H]1[C@@H](OC(=O)c2ccccc2)C[C@@H]2CC[C@H]1N2C [Cocaine, cocaine, reference compound]', 'CL renal', '8.8 to 31.9 mL/min');

====

test: Example 1 single-dose plasma pharmacokinetics after intranasal administration; type: in vivo, human; conditions: female, human, plasma, inhaled or intranasal, 160 mg, Female healthy subjects; single intranasal 160 mg cocaine HCl; plasma; read-out: Tmax (Mean)
Reported Property: Tmax (min)

INSERT INTO results (compound, observed_measurement) VALUES
  ('COC(=O)[C@H]1[C@@H](OC(=O)c2ccccc2)C[C@@H]2CC[C@H]1N2C [Cocaine, cocaine, reference compound]', 26.9);

====

experiment: Example 2 plasma pharmacokinetics, normal renal function vs severe renal impairment; settings: both, human, plasma, inhaled or intranasal, 160 mg, t1/2 (Median), severe renal impairment; single intranasal 160 mg cocaine HCl
Reported Property: half-life (h)

INSERT INTO results (compound, quantity_unit, observed_measurement) VALUES
  ('COC(=O)[C@H]1[C@@H](OC(=O)c2ccccc2)C[C@@H]2CC[C@H]1N2C [Cocaine, cocaine, reference compound]', 'h', 6.39);

====

experiment: Example 2 plasma pharmacokinetics, normal renal function vs severe renal impairment; conditions: both, human, plasma, inhaled or intranasal, 160 mg, median Tmax, normal renal function; single intranasal 160 mg cocaine HCl
Reported Property: Tmax

INSERT INTO measurements (compound, observed_measurement) VALUES
  ('COC(=O)[C@H]1[C@@H](OC(=O)c2ccccc2)C[C@@H]2CC[C@H]1N2C [Cocaine, cocaine, reference compound]', '30 min');

====

assay: Example 3 plasma pharmacokinetics, normal hepatic function vs hepatic impairment; settings: both, human, plasma, inhaled or intranasal, 160 mg, AUC0→∞ (Mean), hepatic impairment; single intranasal 160 mg cocaine HCl
Reported Property: AUC(0-inf) (ng·h/mL)

INSERT INTO measurements (compound, observed_measurement) VALUES
  ('COC(=O)[C@H]1[C@@H](OC(=O)c2ccccc2)C[C@@H]2CC[C@H]1N2C [Cocaine, cocaine, reference compound]', 227);

====

experiment: Example 1 urinary pharmacokinetics after intranasal administration; assay type: in vivo, human; details: human, urine, inhaled or intranasal, 160 mg, healthy subjects; single intranasal 160 mg cocaine HCl; read-out: Renal Clearance (Mean) (converted)
Reported Property: CL renal (mL/min)

INSERT INTO results (molecule, observed_measurement) VALUES
  ('COC(=O)[C@H]1[C@@H](OC(=O)c2ccccc2)C[C@@H]2CC[C@H]1N2C [Cocaine, cocaine, reference compound]', 47.2);

====

experiment: Example 2 urinary pharmacokinetics, normal renal function vs severe renal impairment; conditions: human, urine and plasma, inhaled or intranasal, 160 mg, Renal Clearance, CLr (median), severe renal impairment; single intranasal 160 mg cocaine HCl
Reported Property: CL renal (mL/min)

INSERT INTO results (compound, reported_property, observed_measurement) VALUES
  ('COC(=O)[C@H]1[C@@H](OC(=O)c2ccccc2)C[C@@H]2CC[C@H]1N2C [Cocaine, cocaine, reference compound]', 'CL renal', 19.7);

Where do these numbers come from? They come from patent US10413505B1.
